Attribution: patent US20200308267A1

target-of-assay: T1, recombinant human VEGF165 (human, UniProt P15692-4 27-191, biotinylated (Sulfo-NHS-LC-Biotin) in the competition assays)
T1 construct: also called hVEGF165; rhVEGF165
T1 sequence (P15692 other isoform, or with tags, fused parts or gaps limits assumed): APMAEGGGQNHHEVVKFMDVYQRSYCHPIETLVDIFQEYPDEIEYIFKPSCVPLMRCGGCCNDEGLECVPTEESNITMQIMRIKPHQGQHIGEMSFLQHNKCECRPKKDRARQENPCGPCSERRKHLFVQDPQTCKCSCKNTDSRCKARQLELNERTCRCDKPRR
measurement-protocol: Biacore, periplasmic extract, VEGF165 chip, two phase decay fit
Parameters: unit not given here
reported-endpoint: kd(fast)

Answered cases to consult:
[[record]]
binder = "VEGFBII23F05 (VHH, not shown: small tags and cut ends) VHH: EVQLVESGGGLVQAGDSLRLSCAASGRTFSSYSMGWFRQAQGKEREFVVAISSSGNYKYDSVSLEGRFTISRDNTKNTVYLQINSLKPKDTAVYYCAASRAYGSSRLRLGDTYDYWGQGTQVTVSS"
measured_number = 0.016

[[record]]
binder = "VEGFBII42F11 (VHH, not shown: small tags and cut ends) VHH: EVQLVESGGGLVQPGDSLKLSCVASGRTSSSYSVGWFRQAQGKEREFVVAISSGGYIYDSVSLQGRFTISRDNTKNTVYLQTPSLKPEDTAVYYCAASRAYGSSRLRLADTYDYWGQGTQVTVSS"
measured_number = 0.0091


[I] VEGFBII40F02 (VHH, not shown: small tags and cut ends) VHH: EVQLVESGGGLVQPGDSLKLSCAFSGRTFSSYSMAWFRQAQGKEREFVVAISSGGFIYDAVSLEGRFTISRDNTKNTVYLQTPSLKPEGTAVYYCAASRAYGSSRLRLADTYDYWGQGTQVTVSS
[II] VEGFBII42D05 (VHH, not shown: small tags and cut ends) VHH: EVQLVESGGGLVQPGDSLKLSCAFSGRTFSSYSMGWFRQAQGKEREFVVAISSSGGYIYDSVSLEGRFTISRDNTKNTVYLQTPSLKPEDTAVYYCAASRAYGSSRLRLADTYDYWGQGTQVTVSS
Between I and II , which one has the lower reported kd(fast) value? Mark your answer with the label of the selected entry.
I
(I: 0.012, II: 0.033)
